experimental system: T1, StrepII-tagged human ROR1 extracellular domain (human, UniProt Q01973 30-406)
T1 construct: extracellular domain; also called ROR1-strep; strep-tagged human ROR1
T1 sequence (Q01973 other isoform, or with tags, fused parts or gaps): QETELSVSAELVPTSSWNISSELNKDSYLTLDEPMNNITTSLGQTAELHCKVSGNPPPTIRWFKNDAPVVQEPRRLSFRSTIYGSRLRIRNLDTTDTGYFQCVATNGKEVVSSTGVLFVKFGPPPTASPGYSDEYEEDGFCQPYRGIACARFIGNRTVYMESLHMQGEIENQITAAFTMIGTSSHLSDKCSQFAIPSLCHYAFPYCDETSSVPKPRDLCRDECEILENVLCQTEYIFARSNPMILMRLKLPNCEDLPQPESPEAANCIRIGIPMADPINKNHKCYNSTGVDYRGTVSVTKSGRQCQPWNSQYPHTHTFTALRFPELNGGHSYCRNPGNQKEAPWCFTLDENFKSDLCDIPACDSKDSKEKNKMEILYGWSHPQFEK
experiment summary: SPR (Biacore T200); mAb captured by goat anti-human Fcγ IgG on CM5; ROR1-strep as analyte (Example 8)
assay endpoint: Kd (nM)
The answer is to be given in nM; state only the numeric part.

Below: 2 binders and their reported Kd.
binder: HuXBR1-402(3) (mAb288) (antibody, human IgG1, V domains shown, Humanized IgG (human IgG1 constant regions, lambda)) VH: QVQLRESGPGLVKPSETLSLTCTVSGFDISSYYMSWVRQPPGKGLEWIGAIGISGNAYYASWAKSRVTISRDTSKNQFSLKLSSVTAADTAVYYCARDHPTYGMDLWGPGTLVTVSS VL: SYELTQPLSVSVALGQTARITCEGNNIGSKAVHWYQQKPGQAPVLVIYDDDERPSGIPERFSGSNSGNTATLTISRAQAGDEADYYCQVWDSSAYVFGGGTKLTVLG
Kd, nM: 3.2

binder: HuXBR1-402(17) (mAb291) (antibody, human IgG1, V domains shown, Humanized IgG (human IgG1 constant regions, lambda)) VH: QVQLRESGPGLVKPSETLSLTCTVSGFDISSYYMSWVRQPPGKGLEWIGAIGISGNAYYASWAKSRVTISRDTSKNQFSLKLSSVTAADTAVYYCARDHPTYGMDLWGPGTLVTVSS VL: SYELTQPPSVSVAPGKTARITCEGNNIGSKAVHWYQQKPGQAPVLVIYDDDERPSGIPERFSGSNSGNTATLTISRVEAGDEADYYCQVWDSSAYVFGGGTKLTVLG
Kd, nM: 3.4

Query: Quickly give me recorded Kd for HuXBR1-402(26) (mAb296) (antibody, human IgG1, V domains shown, Humanized IgG (human IgG1 constant regions, lambda)) VH: QVQLQESGPGLVKPSETLSLTCTVSGFDISSYYMSWVRQPPGNGLEWIGAIGISGNAYYASWAKSRVTISRDTSKNQFSLKLSSVTAADTAVYYCARDHPTYGMDLWGPGTLVTVSS VL: SYELTQPLSVSVALGQTARITCEGNNIGSKAVHWYQQKPGLAPVLVIYDDDERPSGIPERFSGSNSGNTATLTISRAQAGDEADYYCQVWDSSAYVFGGGTQLTVLG
Reply: 3.1
